- System: Vero
- PROTOCOL DETAILS: Cytotoxicity against african green monkey Vero cells after 3 days
- Assay type: cell-based
- TEST CONTEXT: chlorocebus sabaeus, 72 h
The reader will find reported CC50 values listed item by item below.

# annotated cases, reported CC50 shown
COC(=O)N[C@H](C(=O)N1CCC[C@H]1c1ncc(-c2ccc(-c3ccc(-c4ccc(-c5cnc([C@@H]6CCCN6C(=O)[C@@H](NC(=O)OC)C(C)C)[nH]5)cn4)cc3)cc2)[nH]1)C(C)C = 29 µM
COC(=O)N[C@H](C(=O)N1CCC[C@H]1c1ncc(-c2ccc(-c3cnc([C@@H]4CCCN4C(=O)[C@@H](NC(=O)OC)C(C)C)[nH]3)cc2)[nH]1)C(C)C = > 100 µM
COC(=O)N[C@H](C(=O)N1CCC[C@H]1c1ncc(-c2ccc(-c3cccc(-c4ccc(-c5cnc([C@@H]6CCCN6C(=O)[C@@H](NC(=O)OC)C(C)C)[nH]5)cc4)c3)cc2)[nH]1)C(C)C = > 100 µM
COC(=O)N[C@H](C(=O)N1CCC[C@H]1c1ncc(-c2ccc(-c3cn(-c4ccc(-c5cnc([C@@H]6CCCN6C(=O)[C@@H](NC(=O)OC)C(C)C)[nH]5)cc4)nn3)cc2)[nH]1)C(C)C = 35 µM

Ask: I have this molecule here, COC(=O)N[C@H](C(=O)N1CCC[C@H]1c1ncc(-c2ccc(-c3ccc(-c4ccc(-c5cnc([C@@H]6CCCN6C(=O)[C@@H](NC(=O)OC)C(C)C)[nH]5)cc4)cc3)cc2)[nH]1)C(C)C , and I need its recorded CC50.
Reply: > 100 µM

Ask: What CC50 value was documented for this molecule, COC(=O)N[C@H](C(=O)N1CCC[C@H]1c1ncc(-c2ccc(NS(=O)(=O)c3ccc(-c4cnc([C@@H]5CCCN5C(=O)[C@@H](NC(=O)OC)C(C)C)[nH]4)cc3)cc2)[nH]1)C(C)C ?
Reply: > 100 µM
